# Tested on: SN12C renal
# testMethodNotes: NCI-60 one-dose screen, 48 h
# measurementParameters: 10 µM unless noted
The panel holds about 83,000 compounds, 20% with a hit somewhere; the sample as a whole holds those more often. Activity calls are given as the source filed them. How the source made its calls: active means growth percent below 10; inactive means the rest.
Classes used: active, inactive

- COc1cc(-c2ccc[nH]2)[nH]c1/C=C1\N=C(C)C(CC(=O)OCC(C)(C)C)=C1C: active
- COc1ccc(N/N=C/c2cn(-c3ccc(C(=O)O)cc3)nc2-c2cc3ccccc3oc2=O)cc1: inactive
- O=C(Nc1cccnc1Nc1ccc(Cl)cc1)c1cn(Cc2cccc(Oc3ccccc3)c2)nn1: inactive
- CCOC(=O)C(CCN(C)C)c1ccccc1 (centres undefined): inactive
- COC(=O)/C(CCC=C(C)C)=C1\[C@@H](OC(C)=O)C[C@@]2(C)[C@H]1C/C(=N/O)[C@H]1[C@@]3(C)CC/C(=N\O)[C@@H](C)[C@@H]3CC[C@@]12C: inactive
- COc1ccc2cc(-c3nc4ccc(C)cn4c3NCc3ccco3)c(=O)[nH]c2c1: inactive
- CS(=O)(=O)Nc1cc(-c2ccc3ncnc(Nc4ccc(OCc5ccccn5)c(Cl)c4)c3c2)cnc1Cl: inactive
- Cc1cccc(-c2nc(C(C)C)sc2-c2ccnc(NCCCNS(=O)(=O)c3ccc(Cl)cc3)c2)c1: inactive
- O=C(Nc1cccnc1Nc1ccccc1)c1cn(Cc2cccc(Oc3ccccc3)c2)nn1: inactive
- O=C(NC1CCC(Br)CC1)C1CCCC(S(=O)(=O)NC2CCCCC2)C1 (centres undefined): inactive
- CN(C)CCCNC(=O)c1cncnc1Nc1ccc2c(ccn2Cc2cccc(F)c2)c1: inactive
- CC(C)C1C2=C(NCCN1C(=O)c1ccncc1)C(C)(C)N(Cc1ccccc1)C2=O (centres undefined): inactive
- Nc1ncnc2c1N=C(c1ccc(Cl)cc1)CC(c1cccc(Nc3ccnc4cc(Cl)ccc34)c1)N2 (centres undefined): inactive
- Cc1cc(=O)n(C(=S)Nc2ccc(Cl)cc2)c2cc(O)ccc12: inactive
- Brc1ccc(Nc2nc(Nc3cnc4ccccc4c3)c3[nH]cnc3n2)cc1: inactive
- CCCCCCCCn1ccc2cc(NC(=O)CN3CCN(c4cc(C)nc(Cl)n4)CC3)ccc21: inactive
- CCCCCCCCCCCCCCCCCCOc1ccccc1CC(=O)NCC[N+](C)(C)C: inactive
- COc1ccc(/C=C/C(c2cc(OC)c(OC)c(OC)c2)n2cncn2)cc1O (centres undefined): inactive
- CCOC(=O)c1c(C)nc2ccccc2c1/C=C/c1ccc(F)cc1: inactive

====

# System: OVCAR-8 ovarian
# testMethodNotes: NCI-60 one-dose screen, 48 h
# measurementParameters: 10 µM unless noted
About 83,000 compounds went through this panel and 20% of them were active in at least one assay; those are over-represented in the sample as a whole. Active and inactive are the calls of the source. The calls were made as follows: active = growth percent below 10; inactive = the rest.
Classes used: active, inactive

- CC12OC(CC(O)C1O)n1c3ccccc3c3c4c(c5c6ccccc6n2c5c31)C(=O)N(CCN1CCCC1)C4=O (stereo unspecified): inactive
- COCC(=O)Oc1cc(-c2ccc(C)cc2C)c(OC(=O)COC)c(-c2ccc(C)cc2C)c1: inactive
- Nc1c(C(=O)Nc2cccc3ncccc23)sc2nc3c(cc12)CN(Cc1ccccc1)CC3: inactive
- N#CC1=C(N)Oc2c(sc3c(F)cccc23)C1c1ccc([N+](=O)[O-])cc1 (stereo unspecified): active
- COc1ccc(C/C(C)=C(\c2ccc(O)cc2)c2ccc(OCCN3CCCCC3)cc2)cc1: inactive
- COc1cc2c(c(OC)c1OC)C(=O)CC(c1cccc(C(=O)Nc3ccc(C#N)cc3)c1)O2 (stereo unspecified): inactive

====

# Tested on: NCI-H322M lung
# testMethodNotes: NCI-60 one-dose screen, 48 h (100 = growth as untreated, 0 = no growth, -100 = all killed)
# measurementParameters: 10 µM unless noted
# Protocol: Growth inhibition of the NCI-H322M human Non-Small Cell Lung tumor cell line is measured as a screen for anti-cancer activity. Cells are grown in 96 well plates and exposed to the test compound for 48 hours. Compounds are tested at a single concentration, which is 10^-5 M for most compounds. The reported endpoint is percent growth (GI% or GIPRCNT), where numbers from 0 - 100% represent growth inhibition, and numbers from -100% - 0 represent cell death. […]
About 83,000 compounds went through this panel and 20% of them were active in at least one assay; those are over-represented in the sample as a whole.
parameterMeasured: growth (%)

* O=C(NCCN1CCOCC1)OCc1ccc2c(Cl)cc(Cl)c(O)c2n1 | 66.9
* O=C(NCCCCCCNC(=O)OCc1ccc2c(Cl)cc(Cl)c(O)c2n1)OCc1ccc2c(Cl)cc(Cl)c(O)c2n1 | 43.6
* C=C(C)[C@@H]1CC[C@]2(COC3CCCCO3)CC[C@]3(C)[C@H](CC[C@@H]4[C@@]5(C)C=C(C=O)C(=O)C(C)(C)[C@@H]5CC[C@]43C)[C@@H]12 (stereo not given in full) | 8.97
* c1ccc(-c2ccc3c(c2)C2(CCNCC2)CN3)cc1 | 102
* COC(=O)c1nc(-c2ccccc2)oc1S(=O)(=O)N1CCCC(C)C1 (stereo not given) | 90.2
* CCOC(=O)c1cnn(CC(C)O)c1NC(=O)NCc1ccccc1C(F)(F)F (stereo not given) | 97.5
* CN(C)c1ccc(CNCCO)cc1 | 104
* C[C@@H]1NC(=O)[C@H](Cc2ccccc2)N(Cc2cccnc2)C1=O | 109
* Oc1ccc(-c2nc3ccc4[nH]ncc4c3c3c2CCCC3)c(F)c1 | 37.8
* NC(=O)c1ccccc1OCC(=O)Nc1ccc(Cl)c(Cl)c1 | 96.8
* O=C(CCCCCCCC(=O)N1CCCCC1)N1CCCCC1 | 115
* Cc1ccc(C(=O)c2ccc(CC(=O)N/N=C/c3cccc(O)c3O)n2C)cc1 | 54.4
* COc1ccc(C(=O)C/C(=C\c2ccc(O)c(OC)c2)C(=O)NN)cc1 | 82
* COc1ccc(Cl)cc1Nc1nc(C(F)(F)F)ccc1C(=O)N/N=C/c1ccc([N+](=O)[O-])cc1 | -1.09
* O=C(Nc1ccc(Nc2ccncc2)cc1)c1ccc(Nc2ccnc3ccc([N+](=O)[O-])cc23)cc1 | 116
* N#Cc1c(-c2ccccc2)nc2c(c(-c3ccc(Cl)cc3)nn2-c2ccccc2)c1-c1ccc([N+](=O)[O-])cc1 | 97
* Nc1cccc(-c2ccc(COc3ccc(CC4SC(=O)NC4=O)cc3)cc2)c1 (stereo not given) | 89.6
* O=C(Oc1ccc2c(c1)sc1nc(-c3ccccc3)[nH]c(=O)c12)C(F)(F)F | 56.3
* CCOC(=O)C/C(=N\Nc1cc(=O)[nH]c2ccc(C)cc12)C(=O)OCC | 98
* CS(=O)(=O)Nc1cc(-c2ccc3ncnc(Nc4ccc5c(cnn5Cc5ccccc5F)c4)c3c2)cnc1Cl | 62

====

# Tested on: NCI-H522 lung
# testMethodNotes: NCI-60 one-dose screen, 48 h (100 = growth as untreated, 0 = no growth, -100 = all killed)
# measurementParameters: 10 µM unless noted
About 83,000 compounds went through this panel and 20% of them were active in at least one assay; those are over-represented in the sample as a whole.
Output: class label from growth. Mapping: LOW (below 60%), MEDIUM (60% to below 90%), HIGH (90% or more)

* Nc1cc(C(=O)O)cc(-n2c(O)c(C=C3N=c4ccccc4=N3)sc2=S)c1 | HIGH
* O=C(NCCCCCCNC(=O)OCc1ccc2c(Cl)cc(Cl)c(O)c2n1)OCc1ccc2c(Cl)cc(Cl)c(O)c2n1 | LOW
* CNCC[C@H](Oc1cccc2ccccc12)c1cccs1 | MEDIUM
* CC(C)n1c2ccc(Br)cc2c2c3c(c4c5ccccc5ccc4c21)C(=O)NC3=O | MEDIUM
* CCCCC#Cc1c(I)n(C2OC(CO[Si](C)(C)C(C)(C)C)C3OC(C)(C)OC32)c(=O)n(C(=O)c2ccccc2)c1=O (centres undefined) | MEDIUM
* N#CSc1c[nH]c2ccc(/C=C/C(=O)/C=C(O)/C=C/c3ccc4[nH]cc(SC#N)c4c3)cc12 | LOW

====

# Test system: RXF 393 renal
# testMethodNotes: NCI-60 one-dose screen, 48 h
# measurementParameters: 10 µM unless noted
Compounds without any hit were thinned out: in the full panel of roughly 83,000, 20% have a hit. Calls of active or inactive are those of the source. How the source made its calls: active means growth percent below 10; inactive means the rest.
Classes used: active, inactive

• CNC(=O)NCC1OC(n2cnc3c(NC(=O)Nc4ccccc4)ncnc32)C2OC(=O)CC12 (centres undefined) = active
• O=C1OCC2=C1C(c1ccccc1)c1cc3c(cc1N2CCO)OCCO3 (centres undefined) = inactive
• Cc1c(O)cc(-c2cnc(N/N=C/c3ccccc3)s2)c(O)c1C = inactive
• C#CCOc1ccc2nc(CCl)c(Cl)c(Nc3cccc(C(F)(F)F)c3)c2c1 = inactive
• COc1ccc(/C=C(/C(=O)N2CCNCC2)c2cc(OC)c(OC)c(OC)c2)cc1O = active
• c1cc(OCCCCCOc2cccc(-c3nc4ccccc4[nH]3)c2)cc(-c2nc3ccccc3[nH]2)c1 = active
• CCCn1c(=S)sc2c(NNC(C)=O)nc(C)nc21 = inactive
• Cc1cccc(NC(=O)N/C(N)=N/c2nc3ccccc3s2)c1 = inactive
• Nc1c(Cl)cc(/C=C2\C=Cc3ccccc32)cc1Cl = inactive
• CCCCC#Cc1c(I)n(C2OC(CO[Si](C)(C)C(C)(C)C)C3OC(C)(C)OC32)c(=O)n(C(=O)c2ccccc2)c1=O (centres undefined) = active
• CC1SC(c2ccccc2O)N(NC(=O)CCC(=O)c2nc3ncccc3[nH]2)C1=O (centres undefined) = inactive
• COc1ccc(Oc2ccc(/C=C/C(=O)c3ccc(OC)c(OC)c3)cc2)cc1 = inactive
• COc1cc(OC)c2c(=O)c3c(CC=C(C)C)cc(OC)c(O)c3oc2c1 = inactive
• CCN1CCN(CCNc2nccc(-c3c(-c4ccc(F)c(O)c4)nc4occn34)n2)S1(=O)=O = inactive
• Oc1c(I)cc(I)cc1CN(Cc1ccccn1)Cc1ccccn1 = inactive
• COc1ccc(-c2cc(-c3cc(OC)ccc3OC)nc(SCC(C)=O)c2C#N)cc1 = active
• CN(C)c1ccc([C@@H](C(=O)Nc2cccc([N+](=O)[O-])c2)N(C(=O)c2cc3ccccc3[nH]2)c2cccc([N+](=O)[O-])c2)cc1 = inactive
• CCN1C(=O)N(CC)C2C1NN=c1s/c(=C\c3ccc(OC)cc3)c(=O)n12 (centres undefined) = inactive
• C1CCC(N2CN3c4nonc4N4CN(C5CCCCC5)CN5c6nonc6N(C2)C3C45)CC1 (centres undefined) = inactive
• CC1(C)CC[C@]23CC[C@]4(C)[C@H](CC[C@@H]5[C@@]6(C)C/C(=C/O)C(=O)C(C)(C)[C@@H]6CC[C@]54C)[C@H]2[C@H]1OC3 = inactive
• Fc1ccc(/C=C/[C@@H]2C[C@@H](F)CCO2)cc1 = inactive
• COc1ccc(-c2nc3ccc(C)cc3c3c2c(=O)n(C)c(=O)n3C)cc1OC = inactive
• CCN1C2CCC1/C(=C\c1ccccc1)C(=O)/C2=C/c1ccccc1 = inactive
• Fc1cccc(-c2nc(-c3c[nH]c4ncccc34)cs2)c1 = inactive
• CCC(C)(C)c1ccc(Nc2ccc(Nc3ccc(C(C)(C)CC)cc3)cc2)cc1 = inactive
• COc1ccc2c(c1)CC[C@@H]1[C@@H]2CC[C@]2(C)c3c(cc(C#N)c4c3sc3ccccc34)C[C@@H]12 = inactive
• CCOC(=O)c1nnn(-c2no[n+]([O-])c2-c2ccc(OC)cc2)c1COc1cccc2cccnc12 = inactive
• COc1ccc(C2CC(n3ccnc3)c3cc(OC)c(OC)c(OC)c32)cc1O (centres undefined) = inactive
• Nc1ccc(Br)cc1C(F)(F)F = inactive
• O=c1oc2c(cc1-c1ccccc1)c[n+]([O-])c1ccccc21 = inactive
• Nc1cc(Br)cc2c1[nH]c(=O)c1ccccc12 = inactive
• C=C1SC(=Nc2ccccc2Cl)N(C(=O)c2sc3ccccc3c2Cl)C1(C)C = inactive
• Cc1ccc2c(/C=C/C(=O)c3cc(CN4CCOCC4)c(O)c4nc(C)ccc34)cc(CN3CCOCC3)c(O)c2n1 = active
• C/C(=C(\c1ccc(OCCN2CCCCCC2)cc1)c1ccc(OC(=O)c2ccccc2)cc1)c1ccc(Cl)cc1 = inactive
• COc1cc(O)c2c(=O)c3c(CC=C(C)C)cc(OC)c(O)c3oc2c1 = inactive
• COc1ccc(C(c2cc(OC)c(OC)c(OC)c2)N2CCCCC2)cc1 (centres undefined) = inactive
• CCOc1ncc([N+](=O)[O-])c(OCC)n1 = inactive
• O=C1C=CC2(O)OC/C(=C\c3ccccc3)C(O)=C2C1=O (centres undefined) = active
• COC(=O)[C@@]1(C)CC[C@]2(C)CC[C@]3(C)C4=CC=C5C(=CC(=O)C(O)=C5C)[C@]4(C)[C@@H](O)C[C@@]3(C)[C@@H]2C1 = active
